# protocol.description: qHTS Validation assay for Inhibitors of Plasmodium falciparum Dd2 growth in vitro; also: nearly all actives have a fitted effect of over 70% in size
# reported.conditions: P. falciparum Dd2 in RBCs, SYBR Green growth, 72 h; series mostly up to 28.7 µM
# Source text: Malaria, a parasitic disease spread to humans through the bite of a Plasmodium infected Anopheles mosquito, continues to be a global health burden affecting millions of people, with an estimated 228 million cases and 405,000 deaths in 2018. Concerns about safety and limitations of current antimalarial treatments strongly emphasize the need to develop new therapeutic options. […]
Among all 4,100 compounds or so, about 1,600 (39%) were called active. Roughly 25% stayed inconclusive and do not appear here. Calls follow the shape of the dose curve; as a rule, active = well fitted inhibition curve with a large enough effect; inconclusive = small, poorly fitted or top-dose-only effect; inactive = no such curve, though single readings can be large or run the other way. The list shows a part of the results.
Classes used: y = active, n = inactive

[[record]]
molecule = "COc1ccc(C(=O)OCCc2cc3ccccc3c(=O)o2)cc1"
class_label = "n"

[[record]]
molecule = "COc1cccc(S(=O)(=O)N2CCC3(CC2)C(OC)C(=O)N3c2cccc(F)c2)c1 (stereo not given)"
class_label = "n"

[[record]]
molecule = "C=CCOC(=O)C(C#N)c1nc2ccccc2nc1N1CCC(C(=O)OCC)CC1 (stereo not given)"
class_label = "y"

[[record]]
molecule = "C#CCN(C)C(=O)C[C@@H]1c2nc(NC(=O)c3ccc(OC)cc3)sc2C[C@@H]2[C@](C)(CO)[C@H](O)CC[C@]21C"
class_label = "y"

[[record]]
molecule = "O=C(NC1CCCC1)N1CCC(Cc2nncn2CC2CC2)CC1"
class_label = "n"

[[record]]
molecule = "O=S(=O)(c1ccc2ccccc2c1)N1CCN(C(=S)Nc2ccc(F)c(Cl)c2)CC1"
class_label = "y"

[[record]]
molecule = "C[C@]1(CO)[C@H]2Cc3sc(NC(=O)C4CCCCC4)nc3[C@@H](CC(=O)NCc3cccnc3)[C@]2(C)CC[C@H]1O"
class_label = "n"

[[record]]
molecule = "O=C(Nc1ccncc1)Nc1ccc(Cl)cc1"
class_label = "y"

[[record]]
molecule = "Cc1ccc(C(=O)N2CCC3(CC2)N(c2ccccc2)C(=O)CS3(=O)=O)c(C)c1"
class_label = "n"

[[record]]
molecule = "COc1cccc(NC(=O)CN(C)C(=O)c2oc3c(ccc4ccccc43)c2C)c1"
class_label = "y"

[[record]]
molecule = "COc1ccccc1CCNC(=O)c1cccn1-c1nnc(N2CCCCC2)s1"
class_label = "n"

[[record]]
molecule = "CCCCOc1ccc(NC2=NC3(CCCCC3)N=C(N)N2)cc1"
class_label = "y"

[[record]]
molecule = "CC(C)C[C@@H]1N[C@H](C(=O)NC(C)C)Cc2cn(Cc3ccncc3)c3cccc1c23"
class_label = "y"

[[record]]
molecule = "CCOc1ccc(/C=C/C(=O)Nc2ccc3nc(N(CC)CC)cc(C)c3c2)cc1OC"
class_label = "y"

[[record]]
molecule = "O=C(Cn1ccc2cc(S(=O)(=O)N3CCCCCC3)ccc21)NCCc1ccc(Cl)cc1"
class_label = "n"

[[record]]
molecule = "COc1ccc(/C=C/C(=O)NCCc2ccc(OC)c(OC)c2)cc1"
class_label = "n"

[[record]]
molecule = "Cc1ccc(-n2ncc3c(NCc4ccco4)ncnc32)cc1C"
class_label = "y"

[[record]]
molecule = "O=C(Nc1ncccc1O)c1ccc(NS(=O)(=O)c2ccc3[nH]c(=O)[nH]c3c2)cc1"
class_label = "y"

[[record]]
molecule = "COc1ccc(NC(=O)CN(C)C(=O)c2oc3c(ccc4ccccc43)c2C)cc1"
class_label = "y"

[[record]]
molecule = "Cc1ccc(CN2CCNC(=O)C2CC(=O)N(CC(C)C)CC(C)C)cc1 (stereo not given)"
class_label = "n"


Data provenance is PubChem BioAssay AID1347416.
